System: HCT-116 colon
Assay: NCI-60 one-dose screen, 48 h (100 = growth as untreated, 0 = no growth, -100 = all killed)
Settings: 10 µM unless noted
The panel holds about 83,000 compounds, 20% with a hit somewhere; the sample as a whole holds those more often.

{"Test Smiles": "COc1cc2ncnc(Oc3cccc(NC(=O)Nc4cc(C(C)(C)C(F)(F)F)on4)c3)c2cc1OC", "growth, %": 10.8}
{"Test Smiles": "ClCc1ccc(-c2ccc(Cn3cnc4c(Cl)nc(Cl)nc43)cc2)cc1", "growth, %": -59.6}
{"Test Smiles": "CN[C@@H]1C[C@H]2O[C@@](C)([C@@H]1OC)n1c3ccccc3c3c4c(c5c6ccccc6n2c5c31)C(=O)N[C@H]4O", "growth, %": -49.3}
{"Test Smiles": "N#Cc1c(NC(=O)c2cccs2)[n+]([O-])c2ccc(F)cc2[n+]1[O-]", "growth, %": 104}
{"Test Smiles": "CCN(CC)CCNc1ccc(N=Nc2cnc3ccccc3c2)c2ccccc12", "growth, %": -94.8}
{"Test Smiles": "O=S1(=O)OC(c2cc(Cl)c(O)c(Br)c2)(c2cc(Cl)c(O)c(Br)c2)c2ccccc21", "growth, %": 96.7}
{"Test Smiles": "O=C(O)c1ccc(Nc2ncc3c(n2)-c2ccc(Cl)cc2C(c2c(F)cccc2F)=NC3)cc1", "growth, %": 43.6}
{"Test Smiles": "COc1cc2c(Oc3ccc(NC(=O)C4(C(=O)Nc5ccc(F)cc5)CC4)cc3F)ccnc2cc1OCCCN1CCOCC1", "growth, %": -61.2}
{"Test Smiles": "O=C(NC[C@H](O)CO)c1ccncc1Nc1ccc(I)cc1F", "growth, %": 9.79}

* * *

System: HCC-2998 colon
Assay: NCI-60 one-dose screen, 48 h
Details: 10 µM
About 83,000 compounds went through this panel and 20% of them were active in at least one assay; those are over-represented in the sample as a whole. The source made the active and inactive calls. How the source made its calls: active means growth percent below 10; inactive means the rest.
Classes used: y for active, n for inactive

{"Compound": "COc1ccc2nc3cc(Cl)ccc3c(Nc3ccc(N(C)C)cc3)c2c1", "Category Label": "n"}
{"Compound": "Cc1cc2c(-c3nc4ccccn4c3N)c(O)c(O)cc2c(O)c1-c1c(C)cc2c(-c3nc4ccccn4c3N)c(O)c(O)cc2c1O", "Category Label": "n"}
{"Compound": "COc1cc2c(Nc3ccc(Br)cc3F)ncnc2cc1OCC1CCN(C)CC1", "Category Label": "n"}
{"Compound": "O=C(CNc1nc2ccccc2s1)Nc1ccc(-c2nc3ccccc3s2)cc1", "Category Label": "n"}
{"Compound": "CCc1nc2cc(/C=C/C(=O)NO)ccc2c(=O)n1CCc1ccc(OC)cc1", "Category Label": "n"}
{"Compound": "COC(=O)[C@]12CC[C@@H](C)[C@H](C)[C@@H]1C1=CC[C@@H]3[C@@]4(C)C[C@@H](OC(=O)/C=C/c5ccccc5)[C@H](O)[C@@](C)(CO)[C@@H]4[C@H](O)C[C@@]3(C)[C@]1(C)CC2", "Category Label": "y"}
{"Compound": "O=c1sn(-c2cccc3ccccc23)c(=O)n1Cc1ccccc1", "Category Label": "n"}
{"Compound": "C=CCN1C(=O)c2cccc3c(-c4ccc5c(c4)ncn5C4CCCCC4)ccc(c23)C1=O", "Category Label": "n"}
{"Compound": "O=C(CNc1nnc(-c2ccc(Cl)cc2)o1)Nc1ccc(-c2nc3ccccc3s2)cc1", "Category Label": "n"}
{"Compound": "COc1ccc(Cl)c(Nc2nc3ccccc3nc2NS(=O)(=O)c2cccc(NC(=O)C(C)(C)N)c2)c1", "Category Label": "n"}
{"Compound": "CSc1nc2ncnc(SC)c2[nH]1", "Category Label": "n"}
{"Compound": "C#Cc1cccc(Nc2ncnc3cc(OC)c(OCCCCCCC(=O)NO)cc23)c1", "Category Label": "y"}
{"Compound": "CN1CCN(c2nc(NCCNc3ccnc4cc(Cl)ccc34)c3ccccc3n2)CC1", "Category Label": "y"}
{"Compound": "O=C(O)c1ccc2c(c1)nc(Nc1cccc(Cl)c1)c1ccncc12", "Category Label": "n"}
{"Compound": "O=C(c1ccc(F)c(F)c1Nc1ccc(I)cc1F)N1CC(O)([C@@H]2CCCCN2)C1", "Category Label": "y"}
{"Compound": "COC(=O)[C@@H](OC)[C@@H]1Cc2cc3cc(OC4CC(OC5CC(O)C(O)C(C)O5)C(O)C(C)O4)c(C)c(O)c3c(O)c2C(=O)[C@H]1OC1CC(OC2CC(OC3CC(C)(O)C(O)C(C)O3)C(O)C(C)O2)C(O)C(C)O1 (some centres undefined)", "Category Label": "y"}
{"Compound": "COc1ccc(C(=O)N2c3ccccc3Sc3ccccc32)c(F)c1", "Category Label": "n"}
{"Compound": "Cc1ccccc1N1C(c2ccccc2)=NNC12C=CC(=O)C=C2Cl (centres undefined)", "Category Label": "n"}
{"Compound": "NC1=Nc2ccccc2N(O)N1", "Category Label": "n"}
{"Compound": "COc1cc2c(Oc3ccc(NC(=O)C4(C(=O)Nc5ccc(F)cc5)CC4)cc3F)ccnc2cc1OCCCN1CCOCC1", "Category Label": "y"}
{"Compound": "CCc1nc2ccc(Cc3ccc(C(=O)NO)cc3)cc2c(=O)n1CCc1ccccc1", "Category Label": "y"}
{"Compound": "O=C(Nc1cccc([N+](=O)[O-])c1)c1ccc(Cl)c(Cl)c1", "Category Label": "n"}
{"Compound": "CCCc1cc2cc(-n3nc(C)c4c3CC(C)(C)CC4=O)cc(NC3CCC(O)CC3)c2c(=O)[nH]1 (centres undefined)", "Category Label": "n"}
{"Compound": "COc1ccc(-c2ccc3ncc4c(c3c2)n(-c2ccc(N3CCNCC3)c(C(F)(F)F)c2)c(=O)n4C)cn1", "Category Label": "y"}
{"Compound": "C=CCCCOC1[C@H](OCc2ccccc2)C(OCc2ccccc2)C(OC)O[C@@H]1CNC(=O)c1cccc(I)c1 (some centres undefined)", "Category Label": "n"}
{"Compound": "CC(C)Nc1cc(-c2c[nH]c(C(=O)N[C@H](CO)c3cccc(Cl)c3)c2)c(Cl)cn1", "Category Label": "y"}
{"Compound": "COC(=O)[C@@H](NC(=O)[C@@H](OC)[C@@H]1Cc2cc3cc(OC4CC(OC5CC(O)C(O)C(C)O5)C(O)C(C)O4)c(C)c(O)c3c(O)c2C(=O)[C@H]1OC1CC(OC2CC(OC3CC(C)(O)C(O)C(C)O3)C(O)C(C)O2)C(O)C(C)O1)C(C)C (some centres undefined)", "Category Label": "n"}
{"Compound": "COc1cc2ncnc(Oc3cccc(NC(=O)Nc4cc(C(C)(C)C(F)(F)F)on4)c3)c2cc1OC", "Category Label": "n"}
{"Compound": "O=C(Cn1c(=O)ccn(CCCCCCCCOc2ccc(Br)cc2)c1=O)Nc1ccc(Oc2ccc(Cl)cc2)cc1", "Category Label": "n"}
{"Compound": "Cc1cc(Nc2cc(N3CCN(C)CC3)nc(Sc3ccc(NC(=O)C4CC4)cc3)n2)n[nH]1", "Category Label": "n"}
{"Compound": "Cc1cc(C(O)CN(C)C)cc2c1ccc1cc(C(C)C)ccc12 (centres undefined)", "Category Label": "y"}
{"Compound": "c1cc(OCCN2CCCCC2)cc(-c2n[nH]c3ccc(-c4ncn[nH]4)cc23)c1", "Category Label": "n"}
{"Compound": "CO[C@H](C(=O)N[C@@H](CCCCNC(=O)OCc1ccccc1)C(=O)OC(C)(C)C)[C@@H]1Cc2cc3cc(OC4CC(OC5CC(O)C(O)C(C)O5)C(O)C(C)O4)c(C)c(O)c3c(O)c2C(=O)[C@H]1OC1CC(OC2CC(OC3CC(C)(O)C(O)C(C)O3)C(O)C(C)O2)C(O)C(C)O1 (some centres undefined)", "Category Label": "y"}
{"Compound": "COc1cc(OC)c(/C=C/S(=O)(=O)Cc2ccc(OC)c(NCC(=O)O)c2)c(OC)c1", "Category Label": "y"}
